Source: PubChem BioAssay AID1963844

Please provide measured viability, T/C for the entries that follow.
# Test system: 422866-222-R5-J1-PDC complex spheroid viability;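 also: spheroids exposed to compounds for one week before readout; percent of DMSO vehicle wells luminescence so 100% = untreated viability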
# protocol: Anticancer human tumor 422866-222-R5-J1-PDC patient-derived pancreatic adenocarcinoma cell line growth inhibition [POLQ]
# condition_context: second compound 0.1 µM; first compound 0.1 µM; stronger effect = lower value
Numbers only, in %.

>  <compound>
CC1COCCN1c1cc(C2(O)CC3CCC(C2)O3)c2cnn(-c3ccn[nH]3)c2n1 (stereo not drawn) + COC1C(OC(N)=O)C(O)C(Oc2ccc3c(O)c(NC(=O)c4ccc(O)c(CC=C(C)C)c4)c(=O)oc3c2C)OC1(C)C

>  <viability, T/C / %>
47

$$$$
>  <compound>
COc1ccc([C@@H](O)c2cc(-c3ncnc4cc(N5CCOCC5)ccc34)c(F)cc2Cl)nn1 + COC1C(OC(N)=O)C(O)C(Oc2ccc3c(O)c(NC(=O)c4ccc(O)c(CC=C(C)C)c4)c(=O)oc3c2C)OC1(C)C

>  <viability, T/C / %>
100

$$$$

If you can, please state the reported viability, T/C value of COc1ccc([C@@H](O)c2cc(-c3ncnc4cc(N5CCOCC5)ccc34)c(F)cc2Cl)nn1 + Cc1cccc(N(C)C(=O)C2C(O)CCN2c2nc(C)cc(C(F)(F)F)c2C#N)c1 .
81.3
